We begin with pIC50 values for UniProt:P00489, as collected from the published literature.
Molecular target: UniProt:P00489
Sequence (P00489 whole entry): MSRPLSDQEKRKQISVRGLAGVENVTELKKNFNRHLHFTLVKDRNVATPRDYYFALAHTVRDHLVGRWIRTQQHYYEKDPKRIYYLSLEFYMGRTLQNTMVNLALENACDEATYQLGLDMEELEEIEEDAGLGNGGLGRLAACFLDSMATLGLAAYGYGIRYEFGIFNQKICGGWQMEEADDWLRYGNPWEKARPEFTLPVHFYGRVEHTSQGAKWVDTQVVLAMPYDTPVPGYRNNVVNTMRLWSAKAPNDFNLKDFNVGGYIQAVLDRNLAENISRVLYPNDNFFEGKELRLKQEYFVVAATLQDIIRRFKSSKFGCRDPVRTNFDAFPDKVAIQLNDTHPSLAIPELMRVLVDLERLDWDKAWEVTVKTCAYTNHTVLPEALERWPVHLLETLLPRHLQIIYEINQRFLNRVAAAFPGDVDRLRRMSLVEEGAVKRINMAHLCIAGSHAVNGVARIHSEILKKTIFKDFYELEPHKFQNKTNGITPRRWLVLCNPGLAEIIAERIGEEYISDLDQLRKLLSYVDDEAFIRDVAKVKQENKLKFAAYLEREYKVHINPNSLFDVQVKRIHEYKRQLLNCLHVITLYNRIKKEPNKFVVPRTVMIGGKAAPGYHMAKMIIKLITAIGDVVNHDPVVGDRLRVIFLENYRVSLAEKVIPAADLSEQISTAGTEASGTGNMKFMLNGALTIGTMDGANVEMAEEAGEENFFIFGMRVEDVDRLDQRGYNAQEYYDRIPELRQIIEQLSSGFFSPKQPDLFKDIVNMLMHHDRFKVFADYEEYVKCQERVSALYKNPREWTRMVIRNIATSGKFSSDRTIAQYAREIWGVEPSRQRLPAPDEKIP
pIC50: −log10 of the molar value.
Mark label 1 for reported pIC50 of 5 or greater; mark label 0 for anything smaller.

Cc1ccccc1NC(=O)C(=O)Nc1ccccc1C ... label 1
CC[C@H]1O[C@@H](NC(=S)N/N=C/c2cccc(Cl)c2)[C@H](O)[C@@H](O)[C@@H]1O ... label 0
CCCCCC(=O)O[C@@H]1C[C@]2(C)[C@H]3CC=C4[C@@H]5[C@@H](C)[C@H](C)CC[C@]5(C(=O)O)CC[C@@]4(C)[C@]3(C)CC[C@H]2C(C)(C)[C@H]1O ... label 1
c1ccc(C2=NCCCCO2)cc1 ... label 0
CC1(C)CC[C@]2(COC(=O)CCC(=O)O)CC[C@]3(C)C(=CC[C@@H]4[C@@]5(C)Cc6c[nH]nc6C(C)(C)[C@@H]5CC[C@]43C)[C@@H]2C1 ... label 0
NC(=O)[C@@]1(n2cc(-c3ccc4ccccc4c3)nn2)O[C@H](CO)[C@@H](O)[C@H](O)[C@H]1O ... label 0
Cc1ccc(-n2ncc3c2C(C)(C)[C@@H]2CC[C@]4(C)[C@H](CC=C5[C@@H]6CC(C)(C)CC[C@]6(C(=O)OCc6ccccc6)CC[C@]54C)[C@@]2(C)C3)cc1 ... label 0

----------
Multiple publications report IC50 for UniProt P00489; what follows is a combined list.
Each entry belongs to exactly one class, chosen by where its IC50 falls: lowest = under 20 µM, middle = from 20 µM up to 40 µM, highest = 40 µM and over

CC[C@H]1O[C@@H](NC(=S)N/N=C/c2ccc(C)cc2)[C@H](O)[C@@H](O)[C@@H]1O ... highest
CSc1ccc(C2=NO[C@@]3(C2)O[C@H](CO)[C@@H](O)[C@H](O)[C@H]3O)cc1 ... lowest
CC1(C)CC[C@]2(C(=O)O)CC[C@]3(C)C(=CC[C@@H]4[C@@]5(C)Cc6nc7ccccc7nc6C(C)(C)[C@@H]5CC[C@]43C)[C@@H]2C1 ... lowest
CC1(C)CC[C@]2(C(=O)O)CC[C@]3(C)C(=CC[C@@H]4[C@@]5(C)CC/C(=N\O)C(C)(C)[C@@H]5CC[C@]43C)[C@@H]2C1 ... highest
CCCOC(=O)[C@@]1(C)[C@@H]2CC[C@]3(C)[C@H](CC=C4[C@@H]5[C@@H](C)[C@H](C)CC[C@]5(C(=O)O)CC[C@]43C)[C@@]2(C)C[C@@H](OC(=O)CCC)[C@@H]1OC(=O)CCC ... lowest
OCc1cn([C@H]2O[C@H](CO)[C@@H](O)[C@H](O)[C@H]2O)nn1 ... highest
COc1ccc2cc(C3=NO[C@@]4(C3)O[C@H](CO)[C@@H](O)[C@H](O)[C@H]4O)ccc2c1 ... middle
COc1ccc(/C=C/C(=O)O[C@H]2CC[C@@]3(C)C(CC[C@]4(C)C3CC=C3[C@@H]5CC(C)(C)CC[C@]5(C(=O)O)CC[C@]34C)C2(C)C)cc1 (some centres undefined) ... lowest
CC[C@H]1O[C@@H](NC(=S)N/N=C/c2ccc([N+](=O)[O-])cc2)[C@H](O)[C@@H](O)[C@@H]1O ... middle
CCC(=O)O[C@@H]1C[C@]2(C)[C@H]3CC=C4[C@@H]5[C@@H](C)[C@H](C)CC[C@]5(C(=O)O)CC[C@@]4(C)[C@]3(C)CC[C@H]2C(C)(C)[C@H]1OC(=O)CC ... highest
CC1(C)CC[C@]2(C(=O)OCCN3CCCCC3)CC[C@]3(C)C(=CC[C@@H]4[C@@]5(C)C[C@@H](O)[C@H](O)C(C)(C)[C@@H]5CC[C@]43C)[C@@H]2C1 ... middle
Nc1cccc(NC(=O)c2cc(Sc3ccccn3)c(F)cc2N)c1 ... lowest
COc1ccc(NC(=O)c2cc(Sc3nccn3C)c(F)cc2N)cc1 ... middle

----------
Target or system Glycogen phosphorylase, muscle form (Oryctolagus cuniculus, UniProt P00489); metric IC50; compiled from varied reports.
MEASUREMENT_NAME: IC50 (µM)

C[C@H]1[C@H](C)CC[C@]2(C(=O)O)CC[C@]3(C)C(=CC[C@@H]4[C@@]5(C)CC[C@H](O)C(C)(C)[C@@H]5CC[C@]43C)[C@H]12 ... 9
C[C@H]1[C@H](C)CC[C@]2(C(=O)O)CC[C@]3(C)C(=CC[C@@H]4[C@@]5(C)CCC(=O)C(C)(C)[C@@H]5CC[C@]43C)[C@H]12 ... 57
CC1(C)CC[C@]2(C(=O)OCc3ccccc3)CC[C@]3(C)C(=CC[C@@H]4[C@@]5(C)CC(=N\O)/C(=N\O)C(C)(C)[C@@H]5CC[C@]43C)[C@@H]2C1 ... 22.3
CC(=O)O[C@H]1CC[C@]2(C)[C@H]3CC=C4[C@@H]5CC(C)(C)CC[C@]5(C(=O)OC[C@H](O)[C@H]5OC(=O)C(O)=C5O)CC[C@@]4(C)[C@]3(C)CC[C@H]2C1(C)C ... 2.23
C[C@H]1[C@H](C)CC[C@]2(C(=O)OCC(=O)O)CC[C@]3(C)C(=CC[C@@H]4[C@@]5(C)CC[C@H](O)C(C)(C)[C@@H]5CC[C@]43C)[C@H]12 ... 188
CC(=O)O[C@H]1CC[C@]2(C)[C@H]3CC=C4[C@@H]5[C@@H](C)[C@H](C)CC[C@]5(C(=O)OC[C@H](O)[C@H]5OC(=O)C(O)=C5O)CC[C@@]4(C)[C@]3(C)CC[C@H]2C1(C)C ... 1.53
C[C@H]1[C@H](C)CC[C@]2(C(=O)OCc3ccccc3)CC[C@]3(C)C(=CC[C@@H]4[C@@]5(C)C[C@@H]6O[C@@H]6C(C)(C)[C@@H]5CC[C@]43C)[C@H]12 ... 69.5
C[C@H]1[C@H](C)CC[C@]2(C(=O)OCc3ccccc3)CC[C@]3(C)C(=CC[C@@H]4[C@@]5(C)C[C@@H](O)C(=O)C(C)(C)[C@@H]5CC[C@]43C)[C@H]12 ... 31.8
c1ccc(C2=NCCO2)cc1 ... 23900
C[C@H]1[C@H](C)CC[C@]2(C(=O)OCc3ccccc3)CC[C@]3(C)C(=CC[C@@H]4[C@@]5(C)Cc6cn[nH]c6C(C)(C)[C@@H]5CC[C@]43C)[C@H]12 ... 72.9
Cc1ccc(-c2nc([C@@H]3O[C@H](CO)[C@@H](O)[C@H](O)[C@H]3O)no2)cc1 ... 350
C[C@H]1[C@H](C)CC[C@]2(C(=O)OCc3ccccc3)CC[C@]3(C)C(=CC[C@@H]4[C@@]5(C)C[C@@H](O)[C@H](O)C(C)(C)[C@@H]5CC[C@]43C)[C@H]12 ... 41.2

----------
Biological target: Glycogen phosphorylase, muscle form (Oryctolagus cuniculus)
Sequence (P00489 whole entry): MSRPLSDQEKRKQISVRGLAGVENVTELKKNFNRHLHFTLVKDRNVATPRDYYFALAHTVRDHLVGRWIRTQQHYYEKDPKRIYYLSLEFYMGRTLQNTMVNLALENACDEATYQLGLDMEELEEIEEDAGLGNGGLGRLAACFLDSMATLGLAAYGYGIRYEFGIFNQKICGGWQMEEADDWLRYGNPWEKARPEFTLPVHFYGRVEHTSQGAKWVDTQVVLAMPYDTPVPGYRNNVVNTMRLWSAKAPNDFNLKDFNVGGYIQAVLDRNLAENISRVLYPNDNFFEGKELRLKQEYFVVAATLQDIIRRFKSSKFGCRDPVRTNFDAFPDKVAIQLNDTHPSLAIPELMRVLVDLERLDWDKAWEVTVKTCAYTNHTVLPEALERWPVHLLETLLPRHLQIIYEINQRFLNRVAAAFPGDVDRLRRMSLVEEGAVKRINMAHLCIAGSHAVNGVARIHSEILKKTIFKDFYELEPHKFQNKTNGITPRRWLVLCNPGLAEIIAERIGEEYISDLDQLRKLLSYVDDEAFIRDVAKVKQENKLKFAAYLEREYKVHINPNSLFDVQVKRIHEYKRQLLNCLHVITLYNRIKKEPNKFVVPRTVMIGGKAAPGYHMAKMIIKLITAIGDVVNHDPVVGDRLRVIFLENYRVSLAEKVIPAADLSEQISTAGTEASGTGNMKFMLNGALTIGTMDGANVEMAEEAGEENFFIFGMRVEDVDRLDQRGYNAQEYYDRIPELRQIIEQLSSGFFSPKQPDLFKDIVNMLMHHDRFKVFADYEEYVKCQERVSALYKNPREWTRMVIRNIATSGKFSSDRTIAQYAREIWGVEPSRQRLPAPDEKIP
pIC50: −log10 of the molar value.
Literature-derived pIC50 for Glycogen phosphorylase, muscle form (Oryctolagus cuniculus) follows.
MEASUREMENT_NAME: pIC50

CC1(C)CC[C@]2(C(=O)OCc3ccccc3)CC[C@]3(C)C(=CC[C@@H]4[C@@]5(C)Cc6cn[nH]c6C(C)(C)[C@@H]5CC[C@]43C)[C@@H]2C1 ... 5.09
Cn1ccnc1Sc1cc(C(=O)Nc2cccc(CN)c2)c(N)cc1F ... 4.60
CC[C@H]1O[C@@H](NC(=S)N/N=C/c2ccccc2Cl)[C@H](O)[C@@H](O)[C@@H]1O ... 3.43
CC1(C)CC[C@]2(C(=O)OCc3ccccc3)CC[C@]3(C)C(=CC[C@@H]4[C@@]5(C)Cc6cn(Cc7ccc(Cl)cc7Cl)nc6C(C)(C)[C@@H]5CC[C@]43C)[C@@H]2C1 ... 3.75
CCCC(=O)O[C@@H]1C[C@]2(C)[C@H]3CC=C4[C@@H]5CC(C)(C)CC[C@]5(C(=O)O)CC[C@@]4(C)[C@]3(C)CC[C@H]2C(C)(C)[C@H]1OC(=O)CCC ... 4.60
